assay: Microsomal stability (rat); assay type: in vitro ADME; settings: rat microsomes
Give measured Microsomal Stability (rat) T1/2 for each item. Keep answers brief.

Record Microsomal Stability (rat) T1/2 for all entries; do not skip any.
1. N#Cc1ccc2ncc3ccc(=O)n(-c4ccc(C(=O)N5CCOCC5)cc4)c3c2c1 [Compound 245]
2. O=C(O)c1cc(Cl)ccc1-c1ccc2ncc3ccc(=O)n(-c4ccc(C(=O)N5CCOCC5)cc4)c3c2c1 [Compound 135]
3. CCn1c(=O)n(-c2cccc(C#N)c2)c2c3cc(-c4ccc(Cl)cc4)ccc3ncc21 [Compound 440]
4. CN1Cc2ccc(-c3ccc4ncc5ccc(=O)n(-c6ccc(C(=O)N7CCOCC7)cc6)c5c4c3)cc2C1 [Compound 244]
5. CN(C)CC#Cc1ccc2ncc3ccc(=O)n(-c4ccc(C(=O)N5CCOCC5)cc4)c3c2c1 [Compound 218]

>30 min
>30.0 min
>30.0 min
>30 min
>30 min
